Source of measurements: PubChem BioAssay (NCI)

# Test system: SR leukemia
# assay_notes: NCI tumour cell line growth inhibition, 48 h
Measured log10 of TGI by item
assay_readout: log10 of TGI (log10 of the value in µM)

molecule	assay_readout	quantitative_result
CN(C)CCN1C(=O)c2cccc3c(-c4ccc5ncn(C6CCCCC6)c5c4)ccc(c23)C1=O	log10 of TGI	0.74
Cc1cc(NS(=O)(=O)c2ccc(NC(=O)c3cccc4c(NNc5ccc(S(N)(=O)=O)cc5)c5ccccc5nc34)cc2)no1	log10 of TGI	1.97
COc1ccc(NCc2c(O)ccc3ccccc23)cc1	log10 of TGI	1.60
C=CC1=C(C)C(Cc2[nH]c(/C=c3\[nH]/c(=C/C4=NC(=O)C(C)/C4=C\C)c(C)c3CCC(=O)O)c(CCC(=O)OC)c2C)NC1=O (stereo not given)	log10 of TGI	1.66
O=C(/C=C/c1ccsc1)c1ccc(Cl)s1	log10 of TGI	1.73

====

# Tested on: T-47D breast
# assay_notes: NCI tumour cell line growth inhibition, 48 h; in the data active means GI50 below about 0.43 µM; inactive means the rest
Labels: True (active), False (inactive)

chemical_structure	measured_target	assigned_category
Cc1cc(S(=O)(=O)Nc2nc3ccsc3c(=O)n2Cc2ccccc2)c(S)cc1Cl	T-47D breast	False
COc1cc2c(cc1-c1c(C)noc1C)ncc1[nH]c(=O)n([C@H](C)c3ccccn3)c12	T-47D breast	False
Cc1ccc(C(=O)Nc2ccccc2C(=O)N/N=C(\c2ccccc2)c2ccccn2)cc1	T-47D breast	False
CCN1CCN(c2nc(C)cc(N(CCCNc3ccnc4cc(Cl)ccc34)Cc3ccco3)n2)CC1	T-47D breast	False
COc1ccc(-c2cc3nccn3c(Nc3ncccc3C(N)=O)n2)cc1OC	T-47D breast	False
COc1cc(/C=N/O)nc(-c2ccccn2)c1	T-47D breast	False
O=C1C(Nc2cccc(O)c2)=C(Sc2ccc(Cl)cc2)C(=O)N1Cc1ccccc1	T-47D breast	False
CCCCc1oc2ccccc2c1C(=O)c1cc(I)c(OCCN(CC)CC)c(I)c1	T-47D breast	False
O=C1C(Cl)=C(Nc2ccc3c(c2NC2=C(Cl)C(=O)c4ccccc4C2=O)C(=O)c2ccccc2C3=O)C(=O)c2ccccc21	T-47D breast	False
O=C(Nn1c2c(sc1=NC1CC1)C(=O)c1ccccc1C2=O)c1cc2ccc1CCc1ccc(cc1)CC2	T-47D breast	False
NCCCn1c2c(c3ccc([N+](=O)[O-])cc3c1=O)C(=O)c1cc(Cl)ccc1-2	T-47D breast	True
CCN1CCN(c2cc(C)nc(NCc3cc(Nc4ccnc5cc(Cl)ccc45)ccc3F)n2)CC1	T-47D breast	False
c1cc(-c2cnn3nc(N4CCOCC4)ccc23)nc(NC2CC2)n1	T-47D breast	False

====

# System: RXF 393 renal
# assay_notes: NCI tumour cell line growth inhibition, 48 h
Measured TGI by item

chemical_structure	measured_target	unit_label	qualifier_symbol	TGI
COc1cc(OC)c(NC2=NCCO2)cc1Cl	RXF 393 renal	µM	>	100
O=c1cc(-c2ccc[nH]2)[nH]c2cc3c(cc12)OCO3	RXF 393 renal	µM	=	47
O=C1C(Nc2cccc(O)c2)=C(Sc2ccc(Cl)cc2)C(=O)N1Cc1ccccc1	RXF 393 renal	µM	=	21.2
CCNC(=O)CCCCC(=O)c1c(C)[nH]c(/C=C2\N=C(c3ccc[nH]3)C=C2OC)c1C	RXF 393 renal	µM	=	8.41
Oc1cccc2nc3cc(CN4CCOCC4)c(CN4CCOCC4)cc3nc12	RXF 393 renal	µM	>	100
Cc1[nH]ccc2cc3nc4ccccc4c3cc12	RXF 393 renal	µM	=	3.91
